- measurement_description: Long-term stability in spiked pooled human plasma
- measurement_parameters: validation standard MOV
measurement_type: Long-term stability, 1 month, -20°C Accuracy [%]

sample_smiles | observed_value
CS(=O)(=O)c1ccc(C(=O)Nc2ccc(Cl)c(-c3ccccn3)c2)c(Cl)c1 | 97.8%
Cc1c(C(=O)Nc2ccc(N3C[C@@H](C)O[C@@H](C)C3)nc2)cccc1-c1ccc(OC(F)(F)F)cc1 | 104.9%
CO[C@@H]1[C@H](N(C)C(=O)c2ccccc2)C[C@H]2O[C@]1(C)n1c3ccccc3c3c4c(c5c6ccccc6n2c5c31)C(=O)NC4 | 105.8%

----------
- measurement_description: Long-term stability in spiked pooled human plasma
- measurement_parameters: validation standard LLOV
Reported Long-term stability, 1 month, -80°C Accuracy [%] values for a set of compounds
measurement_type: Long-term stability, 1 month, -80°C Accuracy [%] (%)

compound | units_text | observed_value
CC(C)(C)c1nc(-c2cccc(NS(=O)(=O)c3c(F)cccc3F)c2F)c(-c2ccnc(N)n2)s1 | % | 96.1
C[C@]12CC[C@H](O)CC1=CC[C@@H]1[C@@H]2CC[C@]2(C)C(c3cccnc3)=CC[C@@H]12 | % | 93.2
Cc1ccc(Nc2nccc(N(C)c3ccc4c(C)n(C)nc4c3)n2)cc1S(N)(=O)=O | % | 97.4
Nc1cccc2c1CN(C1CCC(=O)NC1=O)C2=O (stereo not drawn) [Lenalidomide] | % | 96.6
COc1cc2nccc(Oc3ccc(NC(=O)Nc4cc(C)on4)c(Cl)c3)c2cc1OC | % | 96.0
C[C@@H](Oc1cc(-c2cnn(C3CCNCC3)c2)cnc1N)c1c(Cl)ccc(F)c1Cl | % | 75.4
CCC1=C[C@@H]2CN(C1)Cc1c([nH]c3ccccc13)[C@@](C(=O)OC)(c1cc3c(cc1OC)N(C)[C@H]1[C@@](O)(C(=O)OC)[C@H](OC(C)=O)[C@]4(CC)C=CCN5CC[C@]31[C@@H]54)C2 | % | 110.0
CNC(=O)c1cc(Oc2ccc(NC(=O)Nc3ccc(Cl)c(C(F)(F)F)c3)c(F)c2)ccn1 | % | 102.9
CCCS(=O)(=O)Nc1ccc(F)c(C(=O)c2c[nH]c3ncc(-c4ccc(Cl)cc4)cc23)c1F | % | 101.6
CCN(CC)CCNC(=O)c1c(C)[nH]c(/C=C2\C(=O)Nc3ccc(F)cc32)c1C | % | 122.7
N#CC[C@H](C1CCCC1)n1cc(-c2ncnc3[nH]ccc23)cn1 | % | 94.6
CCc1cc2c(cc1N1CCC(N3CCOCC3)CC1)C(C)(C)c1[nH]c3cc(C#N)ccc3c1C2=O | % | 83.5
COc1cc2c(Nc3ccc(Br)cc3F)ncnc2cc1OCC1CCN(C)CC1 | % | 88.9
O=C1CCC(N2C(=O)c3ccccc3C2=O)C(=O)N1 (stereo not drawn) [Thalidomide] | % | 76.7
Cc1cn(-c2cc(NC(=O)c3ccc(C)c(Nc4nccc(-c5cccnc5)n4)c3)cc(C(F)(F)F)c2)cn1 | % | 89.8
CNC(=O)c1cc(Oc2ccc(NC(=O)Nc3ccc(Cl)c(C(F)(F)F)c3)cc2)ccn1 | % | 102.7
C[C@H]1Oc2cc(cnc2N)-c2c(nn(C)c2C#N)CN(C)C(=O)c2ccc(F)cc21 | % | 82.6
CNCc1ccc(-c2[nH]c3cc(F)cc4c3c2CCNC4=O)cc1 | % | 102.1
CO[C@@H]1[C@H](N(C)C(=O)c2ccccc2)C[C@H]2O[C@]1(C)n1c3ccccc3c3c4c(c5c6ccccc6n2c5c31)C(=O)NC4 | % | 106.4
CS(=O)(=O)CCNCc1ccc(-c2ccc3ncnc(Nc4ccc(OCc5cccc(F)c5)c(Cl)c4)c3c2)o1 | % | 91.6
CC1(C)CCC(CN2CCN(c3ccc(C(=O)NS(=O)(=O)c4ccc(NCC5CCOCC5)c([N+](=O)[O-])c4)c(Oc4cnc5[nH]ccc5c4)c3)CC2)=C(c2ccc(Cl)cc2)C1 | % | 109.1
COc1cc2ncnc(Nc3ccc(F)c(Cl)c3)c2cc1NC(=O)/C=C/CN1CCCCC1 | % | 87.2
CCN1CCN(Cc2ccc(Nc3ncc(F)c(-c4cc(F)c5nc(C)n(C(C)C)c5c4)n3)nc2)CC1 | % | 88.4
CCOc1cc2ncc(C#N)c(Nc3ccc(OCc4ccccn4)c(Cl)c3)c2cc1NC(=O)/C=C/CN(C)C | % | 71.8

----------
- measurement_description: Autosampler stability of ready for injection samples
- Assay type: physicochemical, human
- measurement_parameters: validation standard ULOV

sample_smiles | units_text | Autosampler (72h, 4°C) Accuracy [%]
CC[C@H](Nc1ncnc2[nH]cnc12)c1nc2cccc(F)c2c(=O)n1-c1ccccc1 | % | 101.4
O=C(Nc1cnn2ccc(N3CCC[C@@H]3c3cc(F)ccc3F)nc12)N1CC[C@H](O)C1 | % | 104.4
C=CC(=O)Nc1cc(Nc2nccc(-c3cn(C)c4ccccc34)n2)c(OC)cc1N(C)CCN(C)C | % | 99.1
C#Cc1cccc(Nc2ncnc3cc(OCCOC)c(OCCOC)cc23)c1 | % | 102.9
CO[C@@H]1[C@H](N(C)C(=O)c2ccccc2)C[C@H]2O[C@]1(C)n1c3ccccc3c3c4c(c5c6ccccc6n2c5c31)C(=O)NC4 | % | 97.9
Cc1ccc(C(=O)Nc2ccc(CN3CCN(C)CC3)c(C(F)(F)F)c2)cc1C#Cc1cnc2cccnn12 | % | 102.0

----------
- measurement_description: Long-term stability in spiked pooled human plasma
- measurement_parameters: validation standard ULOV
measurement_type: Long-term stability, 3 month, -20°C Accuracy [%] (%)

compound | observed_value
Cc1[nH]c2ccccc2c1CCNCc1ccc(/C=C/C(=O)NO)cc1 | 87.5
Nc1cccc2c1C(=O)N(C1CCC(=O)NC1=O)C2=O (centres unmarked) [Pomalidomide] | 87.6
C=CC(=O)Nc1cc(Nc2nccc(-c3cn(C)c4ccccc34)n2)c(OC)cc1N(C)CCN(C)C | 88.6
C[C@H]1Oc2cc(cnc2N)-c2c(nn(C)c2C#N)CN(C)C(=O)c2ccc(F)cc21 | 91.0
Cc1ccc(NC(=O)c2ccc(CN3CCN(C)CC3)cc2)cc1Nc1nccc(-c2cccnc2)n1 | 89.6

----------
- measurement_description: Long-term stability in spiked pooled human plasma
- measurement_parameters: validation standard MOV
measurement_type: Long-term stability, 3 month, -80°C Accuracy [%] (%)

compound | units_text | observed_value
NC(=O)c1cccc2cn(-c3ccc([C@@H]4CCCNC4)cc3)nc12 | % | 100.4
CNC(=O)c1ccccc1Sc1ccc2c(/C=C/c3ccccn3)n[nH]c2c1 | % | 90.5
COC(=O)N[C@@H](C)CNc1nccc(-c2cn(C(C)C)nc2-c2cc(Cl)cc(NS(C)(=O)=O)c2F)n1 | % | 100.8
Nc1cccc2c1CN(C1CCC(=O)NC1=O)C2=O (stereo not shown) [Lenalidomide] | % | 96.0
C=CC(=O)Nc1cc(Nc2nccc(-c3cn(C)c4ccccc34)n2)c(OC)cc1N(C)CCN(C)C | % | 101.8
O=C(Nc1cnn2ccc(N3CCC[C@@H]3c3cc(F)ccc3F)nc12)N1CC[C@H](O)C1 | % | 91.1
CCN(CC)CCNC(=O)c1c(C)[nH]c(/C=C2\C(=O)Nc3ccc(F)cc32)c1C | % | 120.9
Cc1c(C(=O)Nc2ccc(N3C[C@@H](C)O[C@@H](C)C3)nc2)cccc1-c1ccc(OC(F)(F)F)cc1 | % | 99.2
CNC(=O)c1cc(Oc2ccc(NC(=O)Nc3ccc(Cl)c(C(F)(F)F)c3)c(F)c2)ccn1 | % | 100.4
COc1cc(N2CCC(N3CCN(C)CC3)CC2)ccc1Nc1ncc(Cl)c(Nc2ccccc2P(C)(C)=O)n1 | % | 106.8
Cc1ccc(C(=O)Nc2ccc(CN3CCN(C)CC3)c(C(F)(F)F)c2)cc1C#Cc1cnc2cccnn12 | % | 95.3
C[C@]12CC[C@H](O)CC1=CC[C@@H]1[C@@H]2CC[C@]2(C)C(c3cccnc3)=CC[C@@H]12 | % | 100.6
CNCc1ccc(-c2[nH]c3cc(F)cc4c3c2CCNC4=O)cc1 | % | 97.2
CCC1=C[C@@H]2CN(C1)Cc1c([nH]c3ccccc13)[C@@](C(=O)OC)(c1cc3c(cc1OC)N(C)[C@H]1[C@@](O)(C(=O)OC)[C@H](OC(C)=O)[C@]4(CC)C=CCN5CC[C@]31[C@@H]54)C2 | % | 93.5
CCN1CCN(Cc2ccc(Nc3ncc(F)c(-c4cc(F)c5nc(C)n(C(C)C)c5c4)n3)nc2)CC1 | % | 101.8
O=C(c1ccc(F)c(F)c1Nc1ccc(I)cc1F)N1CC(O)([C@@H]2CCCCN2)C1 | % | 98.4
N#CC[C@H](C1CCCC1)n1cc(-c2ncnc3[nH]ccc23)cn1 | % | 94.6
COC(=O)c1ccc2c(c1)NC(=O)/C2=C(\Nc1ccc(N(C)C(=O)CN2CCN(C)CC2)cc1)c1ccccc1 | % | 94.7
O=c1[nH]c(=O)n([C@H]2C[C@H](O)[C@@H](CO)O2)cc1C(F)(F)F | % | 90.8
C#Cc1cccc(Nc2ncnc3cc(OCCOC)c(OCCOC)cc23)c1 | % | 102.8
CCCS(=O)(=O)Nc1ccc(F)c(C(=O)c2c[nH]c3ncc(-c4ccc(Cl)cc4)cc23)c1F | % | 96.8
COc1cc2ncnc(Nc3ccc(F)c(Cl)c3)c2cc1OCCCN1CCOCC1 | % | 99.9
